Please respond with reported mass density for every item in the list.
conditions: 288.15 K; 100 kPa; Liquid; Vibrating tube method
One number for each entry, in kg/m3.

Some solved entries appear below for comparison.
O [water] | 999
CNC=O [N-methylformamide] | 1007.94
NC=O [formamide] | 1137.8

Turning now to a further record.
input: Give the measured mass density of CN(C)C=O [dimethylformamide] .
output: 953.53
